System Tested: rat NaPi-2b (Rattus norvegicus, UniProt Q9JJ09)
Assay Comment: Sodium-dependent phosphate uptake of Xenopus oocytes which expressed NaPi-2b (32P)
Measurement Conditions: Xenopus oocytes expressing rat NaPi-2b, 32P radioactive phosphorus; read-out: IC50 (phosphate uptake inhibitory activity)
Protocol: Pharmacological Test Example 1 Experiment of Sodium-Dependent Phosphate Uptake of Xenopus oocytes which Expressed NaPi-2b Degenerate primers were prepared from sequences of mouse NaPi-2b disclosed in Hilfiker H. et al., Pro Natl Acad Sci USA, 95 (24): 14564-14569, […] and sequences of human and rat NaPi-2a disclosed in Magagnin S. et al., Proc Natl Aca Sci USA, 90 (13): 5979-5983, 1993. RNA was extracted from the rat small intestine using ISOGEN; manufactured by NIPPON GENE CO., LTD (Japan). […]
IC50 values for the compounds below.
Quantity Name: IC50

INSERT INTO assay_data (compound, endpoint_value) VALUES
  ('CC(O)CN(Cc1cccc(C(=O)Nc2cc3ccccc3cc2C(=O)N/N=C/c2cccc(F)c2)c1)CC(C)O (centres unmarked) [Compound 959]', '< 1 µM'),
  ('O=C(Nc1ccc(N2CCCCC2)cc1C(=O)N/N=C/c1ccc(F)cc1)c1cccc(CN2CCC(O)CC2)c1 [Compound 872]', '< 3 µM'),
  ('CCN(CC)CCNCc1cccc(C(=O)Nc2scc(C)c2C(=O)N/N=C/c2ccc(C)cc2)c1 [Compound 582]', '< 3 µM'),
  ('Cc1ccc(/C=N/NC(=O)c2cc(N3CCSCC3)ccc2NC(=O)c2cccc(CSCCO)c2)cc1C [Compound 926]', '< 1 µM'),
  ('CN(CCO)Cc1cccc(C(=O)Nc2ccc(Cl)cc2C(=O)N/N=C/c2ccc(Cl)c(C(F)(F)F)c2)c1 [Compound 399]', '3.67 µM');

----------
Attribute: IC50
System Tested: rat NaPi-2b (Rattus norvegicus)
Assay Comment: Sodium-dependent phosphate uptake of Xenopus oocytes which expressed NaPi-2b (32P)
Measurement Conditions: Xenopus oocytes expressing rat NaPi-2b, 32P radioactive phosphorus; read-out: IC50 (phosphate uptake inhibitory activity)
Quantity Name: IC50

INSERT INTO assay_data (compound, endpoint_value) VALUES
  ('CC(O)CN(Cc1cccc(C(=O)Nc2sc3c(c2C(=O)N/N=C/c2ccc(Cl)c(C(F)(F)F)c2)CCCC3)c1)CC(C)O (stereo not drawn)', '< 1 µM'),
  ('CN(CCO)Cc1ccc(C(=O)Nc2ccc(Cl)cc2C(=O)N/N=C/c2ccc(O)cc2)cc1', '29.6 µM'),
  ('COc1ccc(/C=N/NC(=O)c2cc(N3CCSCC3)ccc2NC(=O)c2cccc(CSCCO)c2)cc1', '< 1 µM');

----------
System Tested: rat NaPi-2b (Rattus norvegicus, UniProt Q9JJ09)
Assay Comment: Sodium-dependent phosphate uptake of Xenopus oocytes which expressed NaPi-2b (32P)
Measurement Conditions: Xenopus oocytes expressing rat NaPi-2b, 32P radioactive phosphorus; read-out: IC50 (phosphate uptake inhibitory activity)
Category scheme (IC50): group A: < 900 nM; group B: ≥ 900 nM and < 4000 nM; group C: ≥ 4000 nM

INSERT INTO assay_data (molecule, class_assignment) VALUES
  ('O=C(Nc1ccc(Br)cc1C(=O)N/N=C/c1ccc(Cl)c(C(F)(F)F)c1)c1ccno1 [Compound 513]', 'group C'),
  ('Cc1csc(NC(=O)c2cccc(CN(CCO)CCO)c2)c1C(=O)N/N=C/c1ccc(Cl)c(C(F)(F)F)c1 [Compound 790]', 'group C'),
  ('O=C(Nc1ccc(N2CCCCC2)cc1C(=O)N/N=C/c1cccc(F)c1)c1cccc(CSCCO)c1 [Compound 883]', 'group A'),
  ('CCN(CC)CCNCc1ccc(C(=O)Nc2ccc(Br)cc2C(=O)N/N=C/c2cccc(C)c2)cc1 [Compound 294]', 'group C'),
  ('O=C(Nc1ccc(OCCCN2CCCCC2)cc1C(=O)N/N=C/c1ccc(Cl)c(C(F)(F)F)c1)c1cccc(CSCCO)c1 [Compound 1039]', 'group B'),
  ('COc1ccc(/C=N/NC(=O)c2ccccc2NC(=O)c2ccc(OC)c(OC)c2)cc1Br [Compound 34]', 'group B'),
  ('O=C(Nc1ccc(Cl)cc1C(=O)N/N=C/c1ccc(F)cc1)c1ccccn1 [Compound 360]', 'group A'),
  ('CCN(CC)CCN(CCN(CC)CC)Cc1cccc(C(=O)Nc2sc3c(c2C(=O)N/N=C/c2ccc(C)cc2)CCCC3)c1 [Compound 1056]', 'group B'),
  ('COc1ccc(C(=O)Nc2ccc(N3CCCCC3)cc2C(=O)N/N=C/c2ccc(C)c(C)c2)cc1OC [Compound 935]', 'group A'),
  ('Cc1ccc(/C=N/NC(=O)c2cc(Br)ccc2NC(=O)c2ccco2)cc1C [Compound 155]', 'group A'),
  ('COc1ccc(C(=O)Nc2ccccc2C(=O)N/N=C/c2ccc(C)o2)cc1OC [Compound 22]', 'group C'),
  ('COc1ccc(NC(=O)c2cccc(CSCC(O)CO)c2)c(C(=O)N/N=C/c2cccc(F)c2)c1 (stereo not shown) [Compound 1017]', 'group A');

----------
System Tested: rat NaPi-2b (Rattus norvegicus)
Sequence (Q9JJ09 1-695): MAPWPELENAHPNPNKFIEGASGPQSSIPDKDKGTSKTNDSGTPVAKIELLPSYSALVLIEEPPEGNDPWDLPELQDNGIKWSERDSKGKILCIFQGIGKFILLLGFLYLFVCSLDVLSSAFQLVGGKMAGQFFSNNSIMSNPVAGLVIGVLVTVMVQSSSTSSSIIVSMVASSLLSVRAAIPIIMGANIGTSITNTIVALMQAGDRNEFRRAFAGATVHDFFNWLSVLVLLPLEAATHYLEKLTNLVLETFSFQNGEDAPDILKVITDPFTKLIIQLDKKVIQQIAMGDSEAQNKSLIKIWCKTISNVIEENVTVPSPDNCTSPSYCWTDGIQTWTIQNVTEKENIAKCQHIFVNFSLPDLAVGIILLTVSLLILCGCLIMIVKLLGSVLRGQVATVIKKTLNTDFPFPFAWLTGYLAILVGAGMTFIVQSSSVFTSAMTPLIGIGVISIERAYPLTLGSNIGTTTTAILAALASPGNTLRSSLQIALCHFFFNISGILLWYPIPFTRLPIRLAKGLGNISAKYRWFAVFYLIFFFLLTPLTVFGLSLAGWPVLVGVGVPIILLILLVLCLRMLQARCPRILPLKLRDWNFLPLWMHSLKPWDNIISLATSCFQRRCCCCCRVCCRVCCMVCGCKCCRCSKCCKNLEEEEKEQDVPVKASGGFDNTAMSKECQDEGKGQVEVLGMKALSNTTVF
Assay Comment: Sodium-dependent phosphate uptake of Xenopus oocytes which expressed NaPi-2b (32P)
Measurement Conditions: Xenopus oocytes expressing rat NaPi-2b, 32P radioactive phosphorus; read-out: IC50 (phosphate uptake inhibitory activity)
Quantity Name: IC50

INSERT INTO results (smi, quantity_name, endpoint_value) VALUES
  ('Cc1ccc(/C=N/NC(=O)c2c(C)csc2NC(=O)c2cccc(CN3CCN(CCO)CC3)c2)cc1', 'IC50', '< 3 µM'),
  ('CCN(CC)CCNCc1cccc(C(=O)Nc2scc(C)c2C(=O)N/N=C/c2cccc(F)c2)c1', 'IC50', '< 3 µM'),
  ('COc1ccc(/C=N/NC(=O)c2c(NC(=O)c3cccc(CN4CCN(CCO)CC4)c3)sc3c2CCCC3)cc1', 'IC50', '< 3 µM');

----------
Documented pIC50 across a set of compounds
System Tested: rat NaPi-2b (Rattus norvegicus)
Sequence (Q9JJ09 1-695): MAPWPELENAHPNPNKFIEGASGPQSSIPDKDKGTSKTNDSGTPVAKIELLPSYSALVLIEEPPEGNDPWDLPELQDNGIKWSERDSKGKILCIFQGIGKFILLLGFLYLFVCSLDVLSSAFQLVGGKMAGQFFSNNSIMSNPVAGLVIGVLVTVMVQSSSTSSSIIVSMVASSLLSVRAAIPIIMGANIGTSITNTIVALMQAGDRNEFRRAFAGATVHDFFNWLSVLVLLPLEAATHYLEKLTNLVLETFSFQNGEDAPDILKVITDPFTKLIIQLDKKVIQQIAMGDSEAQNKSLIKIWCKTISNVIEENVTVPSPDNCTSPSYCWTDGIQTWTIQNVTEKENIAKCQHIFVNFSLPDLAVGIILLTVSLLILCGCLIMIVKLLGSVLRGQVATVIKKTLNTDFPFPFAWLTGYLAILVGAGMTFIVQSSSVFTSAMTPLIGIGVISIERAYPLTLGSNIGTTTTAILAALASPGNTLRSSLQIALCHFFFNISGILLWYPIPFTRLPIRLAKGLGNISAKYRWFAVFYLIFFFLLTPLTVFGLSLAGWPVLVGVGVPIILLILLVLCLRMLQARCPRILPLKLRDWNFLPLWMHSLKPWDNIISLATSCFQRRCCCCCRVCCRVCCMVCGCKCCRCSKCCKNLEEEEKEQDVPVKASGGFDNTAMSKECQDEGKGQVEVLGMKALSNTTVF
Assay Comment: Sodium-dependent phosphate uptake of Xenopus oocytes which expressed NaPi-2b (32P)
Measurement Conditions: Xenopus oocytes expressing rat NaPi-2b, 32P radioactive phosphorus; read-out: IC50 (phosphate uptake inhibitory activity)
pIC50: −log10 of the molar value. Structures can show the parent of a compound that is named as a salt.
Quantity Name: pIC50

INSERT INTO measurements (compound, quantity_name, inequality_operator, endpoint_value) VALUES
  ('O=C(Nc1ccc(N2CCCCC2)cc1C(=O)N/N=C/c1cccc(F)c1)c1cccc(CSCC(O)CO)c1 (stereo not shown)', 'pIC50', '>', 6.00),
  ('COc1ccc(/C=N/NC(=O)c2cc3ccccc3cc2NC(=O)c2cccc(CN(CC(C)O)CC(C)O)c2)cc1 (stereo not shown)', 'pIC50', '>', 6.00),
  ('CCN(CC)CCN(C)Cc1cccc(C(=O)Nc2ccc(OCC3CCCCC3)cc2C(=O)N/N=C/c2cccc(F)c2)c1', 'pIC50', '>', 6.00),
  ('Cc1ccc(/C=N/NC(=O)c2cc(I)ccc2NC(=O)c2cccc(CN3CCC(N4CCCCC4)CC3)c2)cc1C', 'pIC50', '>', 5.52),
  ('O=C(Nc1ccc(Cl)cc1C(=O)N/N=C/c1ccc(F)cc1)c1cccnc1', 'pIC50', '=', 5.69),
  ('CN(CCO)Cc1ccc(C(=O)Nc2ccc(Cl)cc2C(=O)N/N=C/c2ccc(Cl)c(C(F)(F)F)c2)cc1', 'pIC50', '>', 5.52),
  ('Cc1cccc(/C=N/NC(=O)c2ccccc2NC(=O)c2ccncc2)c1 [Compound 253, hydrochloride]', 'pIC50', '=', 5.46),
  ('CC(O)CN(Cc1cccc(C(=O)Nc2sc3ccccc3c2C(=O)N/N=C/c2ccc(F)cc2)c1)CC(C)O (stereo not shown)', 'pIC50', '=', 6.01),
  ('Cc1ccc(/C=N/NC(=O)c2cc3ccccc3cc2NC(=O)c2cccc(CN3CCN(CCO)CC3)c2)cc1C', 'pIC50', '>', 5.52),
  ('CCN(CC)CCNCc1cccc(C(=O)Nc2scc(C)c2C(=O)N/N=C/c2ccc(Cl)c(C(F)(F)F)c2)c1', 'pIC50', '>', 5.52),
  ('O=C(Nc1cscc1C(=O)N/N=C/c1ccc(Cl)c(C(F)(F)F)c1)c1cccc(CN2CCN(CCO)CC2)c1', 'pIC50', '=', 5.08),
  ('Cc1ccc(/C=N/NC(=O)c2cc(OCCCCF)ccc2NC(=O)c2cccc(CSCCO)c2)cc1', 'pIC50', '=', 5.88),
  ('CCN(CC)CCN(C)Cc1cccc(C(=O)Nc2ccc(I)cc2C(=O)N/N=C/c2cccc(F)c2)c1', 'pIC50', '>', 5.52),
  ('O=C(Nc1ccc(N2CCC(N3CCCCC3)CC2)cc1C(=O)N/N=C/c1ccc(Cl)c(C(F)(F)F)c1)c1cccc(CSCCO)c1', 'pIC50', '=', 5.55),
  ('O=C(Nc1sc2c(c1C(=O)N/N=C/c1ccc(Cl)c(C(F)(F)F)c1)CCCC2)c1cccc(CN2CCC(O)CC2)c1', 'pIC50', '>', 6.00),
  ('Cc1ccc(/C=N/NC(=O)c2cc(N3CCOCC3)ccc2NC(=O)c2cccc(CSCCO)c2)cc1C', 'pIC50', '>', 6.00),
  ('COc1ccc(C(=O)Nc2ccccc2C(=O)N/N=C/c2ccc(O)cc2O)cc1OC', 'pIC50', '=', 4.62),
  ('O=C(Nc1ccc(Br)cc1C(=O)N/N=C/c1cccc(F)c1)c1ccc(CN2CCC(CO)CC2)cc1', 'pIC50', '=', 4.78),
  ('Cc1ccc(/C=N/NC(=O)c2cc(Br)ccc2NC(=O)c2cccc(CSc3ccncc3)c2)cc1C', 'pIC50', '=', 5.74),
  ('O=C(Nc1sc2c(c1C(=O)N/N=C/c1ccc(Cl)c(C(F)(F)F)c1)CCCC2)c1cccc(CSCCCO)c1', 'pIC50', '>', 6.52),
  ('Cc1ccc(/C=N/NC(=O)c2c(C)csc2NC(=O)c2cccc(CN(CC(C)O)CC(C)O)c2)cc1 (stereo not shown)', 'pIC50', '=', 5.03),
  ('O=C(Nc1sc2c(c1C(=O)N/N=C/c1ccc(F)cc1)CCCC2)c1cccc(CN2CCN(CCO)CC2)c1', 'pIC50', '>', 5.52),
  ('O=C(Nc1ccc(Br)cc1C(=O)N/N=C/c1cccc(Cl)c1)c1ccc(F)cc1', 'pIC50', '=', 5.97),
  ('COc1ccc(C(=O)Nc2scc(C)c2C(=O)N/N=C/c2ccc(Cl)c(C(F)(F)F)c2)cc1OC', 'pIC50', '=', 5.96),
  ('Cc1ccc(/C=N/NC(=O)c2cscc2NC(=O)c2cccc(CN(CC(C)O)CC(C)O)c2)cc1C (stereo not shown)', 'pIC50', '=', 4.99);
